All figures here come from ChEMBL document CHEMBL1135295.

System: PC-3
measurement.protocol: Compound was tested in vitro for cytotoxicity against PC-3, human prostate cancer cells (taxol-sensitive) at a drug concentration producing 50% inhibition of colony formation
Format: functional
condition.parameters: read-out: ID50 (the source's name)
Exercise: for every item that follows, state its recorded IC50.

For every item below, please supply its IC50.
1. CC[C@@]1(OC(=O)COc2ccc(Cl)cc2C)C(=O)OCc2c1cc1n(c2=O)Cc2cc3ccccc3nc2-1
2. CC[C@@]1(O)C(=O)OCc2c1cc1n(c2=O)Cc2cc3ccccc3nc2-1 [CAMPTOTHECIN]
3. CC[C@@]1(OC(=O)COc2ccc(Br)cc2)C(=O)OCc2c1cc1n(c2=O)Cc2cc3ccccc3nc2-1
4. CC[C@@]1(OC(=O)CO[C@@H]2C[C@H](C)CC[C@H]2C(C)C)C(=O)OCc2c1cc1n(c2=O)Cc2cc3ccccc3nc2-1
5. CC(=O)O[C@H]1C(=O)[C@@]2(C)[C@H]([C@H](OC(=O)c3ccccc3)[C@]3(O)C[C@H](OC(=O)[C@H](O)[C@@H](NC(=O)c4ccccc4)c4ccccc4)C(C)=C1C3(C)C)[C@]1(OC(C)=O)CO[C@@H]1C[C@@H]2O [PACLITAXEL]

### Response
1: 3.5 nM; 2: 3.8 nM; 3: 3.2 nM; 4: 6.2 nM; 5: 4 nM
